System: P388 leukemia ip, CD2F1 mice, survival T/C
Assay Text: NCI In Vivo Anticancer Drug Screen. Data for tumor model P388 Leukemia (intraperitoneal) in CD2F1 (CDF1) mice
Particulars: endpoint: median survival time; dose: 25.0 mg/kg/injection; schedule: Q01DX005 (ip); vehicle: Klucel (hydroxypropylcellulose) (HPC); higher = longer survival
Toxic doses and inconclusive results are not listed.
Recorded Endpoint: T/C

* CC1=CC(C)(C)N=C2SC(COc3ccccc3)=NN12 | 116 % of control
* COc1ccc(CCN2C(=O)CCC3=C2CCCC3=O)cc1OC | 102 % of control
* COc1ccc2c3c(ccc2c1)C(=O)/C(=C\O)CC3 | 93 % of control

====

Test system: P388 leukemia ip, CD2F1 mice, survival T/C
Assay Text: NCI In Vivo Anticancer Drug Screen. Data for tumor model P388 Leukemia (intraperitoneal) in CD2F1 (CDF1) mice
Particulars: endpoint: median survival time; dose: 100.0 mg/kg/injection; schedule: Q01DX005 (ip); vehicle: saline with Tween-80; higher = longer survival
Toxic doses and inconclusive results are not listed.
Recorded Endpoint: T/C

- COc1ccc(C(Cc2cc(OC)c(OC)cc2Br)NC=O)cc1OC (configuration not stated): 90 % of control
- C1=CC2OC1c1cc3c(cc12)[C@@H]1C=C[C@@H]3O1: 105 % of control
- Cc1c2c(cc3c4ccccc4n(C)c13)C(=O)NC2=O: 90 % of control
- CCOC(=O)C(NC(=O)C(Cl)Cl)C(O)c1ccccc1 (configuration not stated): 100 % of control
- Nc1ccc(SSc2ccc(Nc3ccnc4cc(Cl)ccc34)cc2)cc1: 93 % of control
- NNC(=O)C(=O)n1ccnc1: 102 % of control
- O=C(NN1C(=O)CS(=O)(=O)C1c1ccc(F)cc1)c1ccncc1 (configuration not stated): 97 % of control
- CSC1=C(C#N)C(=O)N=S(C)(C)=N1: 110 % of control
- COc1cc2c(cc1C(C)c1ccc(Cl)cc1)OCO2 (configuration not stated): 108 % of control
- Cc1[nH]oc(=O)c1C(=O)c1ccccc1: 91 % of control
- CC(C)(C)NC(=O)N1C2C3CCC(C)(OC3(C)C)C21 (configuration not stated): 99 % of control
- CCOc1cc2c(cc1C(C)c1ccccc1OC)OCO2 (configuration not stated): 98 % of control

====

Test system: P388 leukemia ip, CD2F1 mice, survival T/C
Assay Text: NCI In Vivo Anticancer Drug Screen. Data for tumor model P388 Leukemia (intraperitoneal) in CD2F1 (CDF1) mice
Particulars: endpoint: median survival time; dose: 50.0 mg/kg/injection; schedule: Q01DX005 (ip); vehicle: saline; higher = longer survival
Inconclusive results and toxic doses are left out.
Recorded Endpoint: T/C

* CC(C)NCC(O)c1ccc(O)c2ncccc12 (configuration not stated) | 100 % of control
* Cc1cc(C)n(C(=O)n2nc(C)cc2C)n1 | 100 % of control
* CCOC1=N[C@H](C)[C@H](C)N1 | 100 % of control
* O=C(CCl)NCC1OC(n2cnc3c(=O)[nH]cnc32)C(O)C1O (configuration not stated) | 98 % of control
* CN1CCC(C(=O)NNc2ccccc2)CC1 | 100 % of control
* CN1CC2(C)OC3(CC2(C)N1C)N(C)N(C)CC3(C)O (configuration not stated) | 101 % of control
* CCC(C)N(CCNc1cc(OC)cc2cccnc12)CCC(C)C (configuration not stated) | 100 % of control
